self-cleavage kobs at 10000 uM GlcN6P values by entry
B1: glmS ribozyme (parent)
chain: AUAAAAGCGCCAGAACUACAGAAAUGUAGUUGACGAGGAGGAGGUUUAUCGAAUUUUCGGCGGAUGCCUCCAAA

Variants of: B1
procedure-text: self-cleavage kobs at 10000 uM GlcN6P; higher = faster cleavage; RNA array
experimental-parameters: with glucosamine-6-phosphate
This sample holds only a part of the variants without activity.
Give the value in s⁻¹ but do not write s⁻¹ after it.

Take a look at these entries with their results.
A12C A53G: 0.0471
U30A U56A: 0.00496
G13A A42G: 0.000882

Problem: Report self-cleavage kobs at 10000 uM GlcN6P for C68U C70U please.
Result: 1.88e-05

Problem: Report self-cleavage kobs at 10000 uM GlcN6P for A15G G29C please.
Result: 0.002

Problem: Report self-cleavage kobs at 10000 uM GlcN6P for U56A C70G please.
Result: 0.0001

Problem: Report self-cleavage kobs at 10000 uM GlcN6P for U31G G40U please.
Result: 0.00183

Problem: Report self-cleavage kobs at 10000 uM GlcN6P for G13A C70U please.
Result: 0.000676
